Sourced from ChEMBL document CHEMBL1140012

experiment: AUC in Sprague-Dawley rat at 1 mg/kg, po; type: ADME, organism-based; design: dose 1 mg/kg, route oral; details: plasma
reported.metric: AUC (ng·h/mL)
Numbers only here, please. The scale is ng·h/mL.

smiles_repr=Cc1nc2c(cnn2-c2ccccc2)c(=O)n1-c1ccc(Br)cc1 observed_value=100

Now look at this one.
Record Cc1nc2c(cnn2-c2cccc(S(N)(=O)=O)c2)c(=O)n1-c1ccc(Cl)cc1 . Reported AUC: 6240

###

Property: pIC50; scope: individual compounds
target: Metabotropic glutamate receptor 1 (Homo sapiens, UniProt Q13255); assay: Antagonist activity at human mGluR1 receptor expressed in […] cells assessed as inhibition of glutamate-induced calcium flux by FLIPR assay
Sequence (Q13255 whole entry): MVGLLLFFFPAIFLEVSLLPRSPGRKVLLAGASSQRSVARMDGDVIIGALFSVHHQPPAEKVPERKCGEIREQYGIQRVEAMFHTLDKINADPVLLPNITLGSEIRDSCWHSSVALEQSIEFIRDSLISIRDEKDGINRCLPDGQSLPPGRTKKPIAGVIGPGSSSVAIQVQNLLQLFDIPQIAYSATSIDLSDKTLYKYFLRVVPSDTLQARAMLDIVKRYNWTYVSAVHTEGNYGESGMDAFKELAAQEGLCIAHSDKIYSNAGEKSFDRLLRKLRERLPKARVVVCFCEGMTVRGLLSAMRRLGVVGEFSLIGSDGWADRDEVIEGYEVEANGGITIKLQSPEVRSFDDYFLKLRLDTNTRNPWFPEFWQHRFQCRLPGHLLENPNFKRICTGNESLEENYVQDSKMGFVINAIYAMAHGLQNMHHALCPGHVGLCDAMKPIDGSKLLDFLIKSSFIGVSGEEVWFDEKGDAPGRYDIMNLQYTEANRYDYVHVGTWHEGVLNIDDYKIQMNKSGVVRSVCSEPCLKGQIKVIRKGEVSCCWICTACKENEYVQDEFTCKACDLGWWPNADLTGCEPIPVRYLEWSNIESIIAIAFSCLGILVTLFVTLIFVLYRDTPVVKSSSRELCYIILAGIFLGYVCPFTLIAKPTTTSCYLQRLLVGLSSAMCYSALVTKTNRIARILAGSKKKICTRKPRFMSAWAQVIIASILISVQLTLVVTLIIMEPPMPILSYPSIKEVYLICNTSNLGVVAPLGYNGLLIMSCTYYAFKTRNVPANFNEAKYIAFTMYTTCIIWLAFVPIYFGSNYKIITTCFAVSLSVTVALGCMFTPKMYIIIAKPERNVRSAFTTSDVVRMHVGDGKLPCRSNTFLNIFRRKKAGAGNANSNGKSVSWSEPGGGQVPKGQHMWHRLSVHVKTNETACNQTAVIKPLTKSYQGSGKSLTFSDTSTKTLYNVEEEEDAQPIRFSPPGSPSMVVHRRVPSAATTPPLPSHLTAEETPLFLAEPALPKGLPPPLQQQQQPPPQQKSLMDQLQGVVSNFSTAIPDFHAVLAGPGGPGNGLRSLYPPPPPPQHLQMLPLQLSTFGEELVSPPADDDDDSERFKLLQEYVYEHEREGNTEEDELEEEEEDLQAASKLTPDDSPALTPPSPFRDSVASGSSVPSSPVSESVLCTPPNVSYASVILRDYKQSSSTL
Scale: pIC50 equals -log10([C]), with [C] in mol/L.

Please review the following examples before continuing.
smiles_repr=Cc1nc2c(cnn2-c2ccccc2)c(=O)n1N1CCCCCC1 reported_metric=pIC50 observed_value=6.62
smiles_repr=Cc1nc2c(cnn2-c2ccc(S(N)(=O)=O)cc2)c(=O)n1-c1ccc(Cl)cc1 reported_metric=pIC50 observed_value=5.85

Hey, Metabotropic glutamate receptor 1 (Homo sapiens, UniProt Q13255) data for Cc1nc2c(cnn2-c2cncnc2)c(=O)n1-c1ccc(Cl)cc1 : pIC50 came out at 5.01
